This collection of values is drawn from paper PMC9482650.

System under test: T1, LIN7C, Q9NUP9
T1 sequence (Q9NUP9 88-185, limits assumed, looked up): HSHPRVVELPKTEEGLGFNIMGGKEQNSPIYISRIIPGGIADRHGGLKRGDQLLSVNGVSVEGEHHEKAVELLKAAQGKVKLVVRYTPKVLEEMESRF
Test details: holdup assay
Parameters: key: below the threshold = too weak to quantify, mostly under pKd 3.1 to 4
Measurement conditions: plain residues with an end cap or a label only (N-terminal biotin on a linker: ado-ado)
Recorded endpoint: pKd

Example cases with answers are listed next.
[
  {
    "Binder": "AHGSTRDQSI [KCNB1, Q14721]",
    "pKd": "below the threshold"
  },
  {
    "Binder": "QLGSPTADLA [SIPA1, Q96FS4]",
    "pKd": 3.69
  },
  {
    "Binder": "YAEKRMLTEV [KCNA6, P17658]",
    "pKd": 3.52
  },
  {
    "Binder": "IKLETKKTKL [SLC15A2, Q16348]",
    "pKd": "below the threshold"
  },
  {
    "Binder": "KSRPENGTVC [TMEM178B, H3BS89]",
    "pKd": "below the threshold"
  }
]

# return recorded pKd for input STYCDYTIEI [FAM71C, Q8NEG0]
below the threshold

# return recorded pKd for input LLQEEWETVM [PTH1R, Q03431]
below the threshold

# return recorded pKd for input PKSNSSKEYV [CLDN7, O95471]
4.06
